- Tested on: rodent lifetime carcinogenesis bioassay, tumor incidence TD50
- testProtocol: carcinogenic potency in animals, long-term in vivo studies, CPDB compilation (AID 1745844)
- conditionInfo: hamster; strain Syrian Golden; females; in drinking water; site: blood vessels; lesion: several types; types named in the paper; dosed 79 weeks; study length 79 weeks
assayMetric: TD50 (mg/kg/day)
Write the value in mg/kg/day as a bare number.

Measured TD50 of CN(C)N : 620

====

- Test system: rodent lifetime carcinogenesis bioassay, tumor incidence TD50
- testProtocol: carcinogenic potency in animals, long-term in vivo studies, CPDB compilation (AID 1745844)
- conditionInfo: rat; strain Fischer 344; males; by gavage; site: nasal cavity; lesion: adenocarcinoma + carcinoma, NOS + squamous-cell carcinoma; dosed 94 weeks; study length 104 weeks
assayMetric: TD50

The recorded TD50 for CC(C)=CCl is 29.7 mg/kg/day

====

- System: rodent lifetime carcinogenesis bioassay, tumor incidence TD50
- testProtocol: carcinogenic potency in animals, long-term in vivo studies, CPDB compilation (AID 1745844)
- conditionInfo: rat; strain Wistar; females; inhaled; site: liver; lesion: angiosarcoma; dosed 52 weeks; study length 52 weeks
assayMetric: TD50

Lab note: measured TD50 of C=CCl was 209 mg/kg/day

====

- System: rodent lifetime carcinogenesis bioassay, tumor incidence TD50
- testProtocol: carcinogenic potency in animals, long-term in vivo studies, CPDB compilation (AID 1745844)
- conditionInfo: rat; strain Sprague-Dawley; females; inhaled; site: brain; lesion: neuroblastoma; dosed 25 weeks; study length 135 weeks
assayMetric: TD50 (mg/kg/day)
// note: answer is a bare numeric in mg/kg/day

Note to self: TD50 recorded for C=CCl was 3630

====

- Tested on: rodent lifetime carcinogenesis bioassay, tumor incidence TD50
- testProtocol: carcinogenic potency in animals, long-term in vivo studies, CPDB compilation (AID 1745844)
- conditionInfo: rat; strain Fischer 344; males; in feed; site: liver; lesion: hepatocellular adenoma + hepatoblastoma + hepatocellular carcinoma; dosed 12 weeks; study length 103 weeks
assayMetric: TD50 (mg/kg/day)
Could you give me the number in mg/kg/day? Just the number is fine.

Record OCC(CO)(CBr)CBr . Reported TD50: 702

====

- System: rodent lifetime carcinogenesis bioassay, tumor incidence TD50
- testProtocol: carcinogenic potency in animals, long-term in vivo studies, CPDB compilation (AID 1745844)
- conditionInfo: mouse; strain B6C3F1; females; in drinking water; site: all sites; lesion: malignant lymphoma, histiocytic type + malignant lymphoma, mixed type + malignant lymphoma, undifferentiated type + malignant; dosed 103 weeks; study length 104 weeks
assayMetric: TD50

Data point: Nc1ccc(Cc2ccc(N)cc2)cc1 ; TD50 = 64.7 mg/kg/day

====

- Test system: rodent lifetime carcinogenesis bioassay, tumor incidence TD50
- testProtocol: carcinogenic potency in animals, long-term in vivo studies, CPDB compilation (AID 1745844)
- conditionInfo: mouse; strain B6C3F1; females; by gavage; site: vagina; lesion: squamous-cell carcinoma; dosed 104 weeks; study length 104 weeks
assayMetric: TD50

Reported TD50 for Cc1cn([C@H]2C[C@H](N=[N+]=[N-])[C@@H](CO)O2)c(=O)[nH]c1=O was 246 mg/kg/day

====

- Test system: rodent lifetime carcinogenesis bioassay, tumor incidence TD50
- testProtocol: carcinogenic potency in animals, long-term in vivo studies, CPDB compilation (AID 1745844)
- conditionInfo: hamster; strain Syrian Golden; females; in drinking water; site: liver; lesion: hepatocellular carcinoma; dosed 87 weeks; study length 87 weeks
The source made the active and inactive calls. How the calls were made is not given here.
assayMetric: TD50

The recorded TD50 for entry CN(CCCC(=O)c1cccnc1)N=O equals 5.13 mg/kg/day (inactive)

====

- Tested on: rodent lifetime carcinogenesis bioassay, tumor incidence TD50
- testProtocol: carcinogenic potency in animals, long-term in vivo studies, CPDB compilation (AID 1745844)
- conditionInfo: mouse; strain ICR; females; inhaled; site: lung; lesion: adenocarcinoma; dosed 104 weeks; study length 107 weeks
assayMetric: TD50

For this compound ( ClC=C(Cl)Cl ), measured TD50 is 3380 mg/kg/day

====

- Tested on: rodent lifetime carcinogenesis bioassay, tumor incidence TD50
- testProtocol: carcinogenic potency in animals, long-term in vivo studies, CPDB compilation (AID 1745844)
- conditionInfo: mouse; strain B6AKF1; females; oral dosing; site: lung; lesion: adenoma; dosed 82 weeks; study length 82 weeks
assayMetric: TD50 (mg/kg/day)
Provide only the numeric value, understood in mg/kg/day.

GET /values?item= CCOC(=O)C(O)(c1ccc(Cl)cc1)c1ccc(Cl)cc1 &system= rodent lifetime carcinogenesis bioassay, tumor incidence TD50 returns TD50: 621

====

- Test system: rodent lifetime carcinogenesis bioassay, tumor incidence TD50
- testProtocol: carcinogenic potency in animals, long-term in vivo studies, CPDB compilation (AID 1745844)
- conditionInfo: mouse; strain A; males; in drinking water; site: liver; lesion: hepatocellular adenoma; dosed 72 weeks; study length 72 weeks
assayMetric: TD50 (mg/kg/day)
Express the result in mg/kg/day but write the number alone.

// TD50 lookup, compound = CCO , result: 127000

====

- Tested on: rodent lifetime carcinogenesis bioassay, tumor incidence TD50
- testProtocol: carcinogenic potency in animals, long-term in vivo studies, CPDB compilation (AID 1745844)
- conditionInfo: mouse; strain Charles River CD1; females; in feed; site: any site (literature study); lesion: benign tumor; dosed 78 weeks; study length 92 weeks
Active and inactive are the calls of the source. No rule for the calls is given here.
assayMetric: TD50

The measured TD50 associated with CC(C)NCC(O)c1ccc(NS(C)(=O)=O)cc1 (stereo unspecified) reads 1740 mg/kg/day (inactive)

====

- Test system: rodent lifetime carcinogenesis bioassay, tumor incidence TD50
- testProtocol: carcinogenic potency in animals, long-term in vivo studies, CPDB compilation (AID 1745844)
- conditionInfo: mouse; strain B6AKF1; females; oral dosing; site: any site (literature study); lesion: several types; types named in the paper; dosed 73 weeks; study length 73 weeks
assayMetric: TD50 (mg/kg/day)
Record the value in mg/kg/day, omitting the unit from your answer.

Test item CCOC(N)=O ; rodent lifetime carcinogenesis bioassay, tumor incidence TD50; reported TD50 was 9.73

====

- System: rodent lifetime carcinogenesis bioassay, tumor incidence TD50
- testProtocol: carcinogenic potency in animals, long-term in vivo studies, CPDB compilation (AID 1745844)
- conditionInfo: rat; strain Fischer 344; females; in feed; site: any site (literature study); lesion: several types; types named in the paper; dosed 104 weeks; study length 108 weeks
Active and inactive are the calls of the source. How the calls were made is not given here.
assayMetric: TD50

Per the records, this molecule ( O=C(O)c1ccccc1 ) has TD50 equal to 24900 mg/kg/day (inactive)

====

- System: rodent lifetime carcinogenesis bioassay, tumor incidence TD50
- testProtocol: carcinogenic potency in animals, long-term in vivo studies, CPDB compilation (AID 1745844)
- conditionInfo: rat; strain Fischer 344; males; in feed; site: liver + urinary bladder; lesion: hepatocellular carcinoma + neoplastic nodule + transitional-cell carcinoma; dosed 104 weeks; study length 109 weeks
assayMetric: TD50 (mg/kg/day)
Answer in mg/kg/day, number only, no unit symbol.

Readout TD50 for NCCCCCCCCCCC(=O)O , test system rodent lifetime carcinogenesis bioassay, tumor incidence TD50, was 833

====

- Tested on: rodent lifetime carcinogenesis bioassay, tumor incidence TD50
- testProtocol: carcinogenic potency in animals, long-term in vivo studies, CPDB compilation (AID 1745844)
- conditionInfo: mouse; strain HRA/Skh (hairless); females; in feed; site: skin; lesion: squamous-cell papilloma; dosed 52 weeks; study length 80 weeks
Active and inactive are the calls of the source. The rule behind the calls is not given here.
assayMetric: TD50

For record COc1c2occc2cc2ccc(=O)oc12 the listed TD50 is 151 mg/kg/day (inactive)

====

- Tested on: rodent lifetime carcinogenesis bioassay, tumor incidence TD50
- testProtocol: carcinogenic potency in animals, long-term in vivo studies, CPDB compilation (AID 1745844)
- conditionInfo: rat; strain Wistar; males; in feed; site: liver; lesion: hepatocellular carcinoma; dosed 116 weeks; study length 116 weeks
assayMetric: TD50

> print(dat)
                             inputsmiles          result
1  Clc1ccc(-c2ccc(Cl)c(Cl)c2Cl)c(Cl)c1Cl  5.39 mg/kg/day

Now look at this entry.
Briefly, TD50 measured for Clc1cccc(-c2cccc(Cl)c2)c1 : 157 mg/kg/day

====

- Test system: rodent lifetime carcinogenesis bioassay, tumor incidence TD50
- testProtocol: carcinogenic potency in animals, long-term in vivo studies, CPDB compilation (AID 1745844)
- conditionInfo: mouse; strain B6C3F1; males; in feed; site: lung; lesion: alveolar/bronchiolar adenoma + alveolar/bronchiolar carcinoma; dosed 78 weeks; study length 90 weeks
assayMetric: TD50 (mg/kg/day)
Please reply with the bare figure in mg/kg/day and do not write the unit itself.

Please fill in: TD50 reported for CCOP(=S)(OCC)SC1OCCOC1SP(=S)(OCC)OCC (stereo unspecified) = 628

====

- Tested on: rodent lifetime carcinogenesis bioassay, tumor incidence TD50
- testProtocol: carcinogenic potency in animals, long-term in vivo studies, CPDB compilation (AID 1745844)
- conditionInfo: mouse; strain B6C3F1; females; in feed; site: liver; lesion: hepatocellular adenoma + hepatocellular carcinoma; dosed 103 weeks; study length 104 weeks
assayMetric: TD50

For O=P(OCC(Br)CBr)(OCC(Br)CBr)OCC(Br)CBr (centres undefined) on rodent lifetime carcinogenesis bioassay, tumor incidence TD50, measured TD50 was 95 mg/kg/day
